Reference source for all entries: ChEMBL document CHEMBL3817810

Tested on: Bacillus subtilis
test-description: Antibacterial activity against Bacillus subtilis by broth microdilution assay
Format: functional
Consider the following compounds and their measured MIC readings.
Could you give me the number in µg/mL? Just the number is fine.

// below: answered compounds
- smiles-string: "Oc1ccc(Cc2c(Br)[nH]c3cc(Br)c(Br)cc23)cc1Br"
  uom: "µg/mL"
  recorded-measurement: 8
- smiles-string: "CC(C)=C1C(=O)N(O)c2cc(Br)c(Br)cc21"
  uom: "µg/mL"
  recorded-measurement: 50

Let us examine a further case.
Query: Which value of MIC has been reported for CC1(C)S[C@@H]2[C@H](NC(=O)Cc3ccccc3)C(=O)N2[C@H]1C(=O)O in the records?
Result: 0.125

* * *

This listing pairs compounds with measured MIC.
System: Agrobacterium tumefaciens
test-description: Antibacterial activity against Agrobacterium tumefaciens by broth microdilution assay
Assay type: functional
Number in µg/mL, nothing else.

Solved entries:
- smiles-string: "CC(C)=C1C(=O)N(O)c2cc(Br)c(Br)cc21"
  MIC [µg/mL]: 12.5
- smiles-string: "Oc1ccc(Cc2c(Br)[nH]c3cc(Br)c(Br)cc23)cc1Br"
  MIC [µg/mL]: 4

Query: For CC1(C)S[C@@H]2[C@H](NC(=O)Cc3ccccc3)C(=O)N2[C@H]1C(=O)O , what is its reported MIC?
Result: 250

* * *

System: Pseudomonas amygdali pv. lachrymans
test-description: Antibacterial activity against Pseudomonas lachrymans by broth microdilution assay
Assay type: functional
The following molecules are shown together with reported MIC values.
Give a bare numeral; the unit µg/mL is implied.

- smiles-string: "CC1(C)S[C@@H]2[C@H](NC(=O)Cc3ccccc3)C(=O)N2[C@H]1C(=O)O"
  experimental-target: "Pseudomonas amygdali pv. lachrymans"
  MIC [µg/mL]: 250
- smiles-string: "CC(C)=C1C(=O)N(O)c2cc(Br)c(Br)cc21"
  experimental-target: "Pseudomonas amygdali pv. lachrymans"
  MIC [µg/mL]: 50

Query: Form field: reported MIC of Oc1ccc(Cc2c(Br)[nH]c3cc(Br)c(Br)cc23)cc1Br
Result: 8

* * *

Test system: Staphylococcus aureus
test-description: Antibacterial activity against Staphylococcus aureus by broth microdilution assay
Assay type: functional
MIC reference
Return type: number; implicit unit µg/mL.

Below: 2 compounds and their reported MIC.
- smiles-string: "Oc1ccc(Cc2c(Br)[nH]c3cc(Br)c(Br)cc23)cc1Br"
  MIC / µg/mL: 2
- smiles-string: "CC1(C)S[C@@H]2[C@H](NC(=O)Cc3ccccc3)C(=O)N2[C@H]1C(=O)O"
  MIC / µg/mL: 0.25

Query: Reported MIC, compound CC(C)=C1C(=O)N(O)c2cc(Br)c(Br)cc21 : ____
Result: 12.5
